test system: C. elegans VP596 gst-4::GFP/RFP ratio, acrylamide, 24 h; test: gst-4 reporter suppression by analogs in C. elegans – whole organism, GFP/RFP fluorescence ratio, strain VP596, SKN-1 inhibitor project, SAR follow-up (AID 652140)
Active and inactive are the calls of the source.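 Rule for the calls: active = compounds whose IC50 against the worm SKN-1 reporter ratio signal is 5 µM or lower; inactive = the rest.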
Pick one: Yes for active, No for inactive

Here are 3 compounds together with their reported answers.
Fc1ccc(COc2ccc(CNC3CCCC3)cc2Cl)cc1 ... Yes
CCOc1cc(CNC2CCC2)cc(Cl)c1OCc1ccc(F)cc1 ... No
CCOc1cc(CNC2CCCC2)cc(Cl)c1OC ... No

Please let me know the test result on file for Clc1ccc(-c2csc(-c3ccncc3)n2)cc1 .
Yes

Do the same for COc1ccc(-c2csc(-c3cccnc3)n2)cc1 please
No

Do the same for CCOc1cc(C(=O)NC2CCCC2)cc(Cl)c1OCc1ccc(F)cc1 please
No

Do the same for Fc1ccc(-c2csc(-c3cccnc3)n2)cc1 please
No

Do the same for CCOc1cc(CNC2CCCC2)cc(Cl)c1OCc1ccccc1F please
Yes

Do the same for COc1cc(CNC2CCCC2)cc(Cl)c1OCc1ccc(F)cc1 please
Yes

Do the same for Clc1ccc(-c2csc(-c3cccnc3)n2)cc1 please
Yes
